Assay: Induction of activation of human CD56+ CD3- NK cells co-cultured with human K562 cells in 1:1 ratio and assessed as increase in TNF-alpha secretion at 2.5 uM measured by ELISA assay
Format: functional, Natural killer cell
Value type: fold change (FC)
In your answer, state the number alone without any accompanying words.

Field: example entries. Status: answers known.
>>> value_measured("Cn1cnnc1C(F)(F)[C@](C)(F)c1cccc(N2Cc3c(cc(C(=O)N4CC[C@H](O)C4)cc3C(F)(F)F)C2=O)c1")
1.01
>>> value_measured("C[C@H](Sc1nncn1C)c1cccc(NC(=O)c2cccc(C(F)(F)F)n2)c1")
1.01
>>> value_measured("Cn1cnnc1CC1(c2cccc(N3Cc4c(cc(CN5CC(F)C5)cc4C(F)(F)F)C3=O)c2)COC1")
2.01
>>> value_measured("Cc1cc(C(=O)Nc2cccc([C@H](C)Cc3nncn3C)c2)nc(C2CC2)n1")
2.01
>>> value_measured("C[C@H](Cc1nncn1C)c1cccc(NC(=O)c2n[nH]c3c2CCC3)c1")
1.01

INPUT: Look up fold change (FC) for this molecule: C[C@@H](Sc1nncn1C)c1cccc(NC(=O)c2cccc(C(F)(F)F)n2)c1
OUTPUT: 1.01

INPUT: Repeat for the following molecule: COC1CN(Cc2cc3c(c(C(F)(F)F)c2)CN(c2cccc([C@@](C)(F)C(F)(F)c4nncn4C)c2)C3=O)C1
OUTPUT: 2.01

----------
Measured fold change (FC), listed per entry.
Test: Induction of anti-CD3/CD28 antibodies-stimulated human T cell activation at 1 uM assessed fold increase in CD25 expression measured by ELISA assay
Format: functional, T cell line
In your answer, state the number alone without any accompanying words.

Field: example entries. Status: answers known.
>>> value_measured("Cc1nc2c(o1)CCN(Cc1cc3c(c(C(F)(F)F)c1)CN(c1cccc(C4(Cc5nncn5C)COC4)c1)C3=O)C2")
1.31
>>> value_measured("C[C@H](Cc1nncn1C)c1cccc(NC(=O)c2cccc(C(C)(C)C)n2)c1")
1.01
>>> value_measured("CN1CCC(=O)C(Cc2cc3c(c(C(F)(F)F)c2)CN(c2cccc(C4(Cc5nncn5C)COC4)c2)C3=O)C1 (centres undefined)")
1.01
>>> value_measured("C[C@H](Cc1nncn1C)c1cccc(N2Cc3c(cc(-n4cccn4)cc3C(F)(F)F)C2=O)c1")
1.51
>>> value_measured("C[C@H](Cc1nncn1C)c1cccc(N2Cc3c(cc(C4CC4)nc3C3CC3)C2=O)c1")
1.01

# context switch: different compound, same fold change (FC)
INPUT: Look up fold change (FC) for this compound: C[C@H](Cc1nncn1C)c1cccc(NC(=O)c2nc3c(C4CC4)cccc3[nH]2)c1
OUTPUT: 1.01

----------
Measured fold change (FC), listed per entry.
Assay: Induction of anti-CD3/CD28 antibodies-stimulated human T cell activation at 1 uM assessed fold increase in CD25 expression measured by ELISA assay
Assay type: functional, T cell line
In your answer, state the number alone without any accompanying words.

Field: example entries. Status: answers known.
>>> value_measured("Cn1cnnc1CC1(c2cccc(N3Cc4c(cc(CN5Cc6cccc(F)c6C5)cc4C(F)(F)F)C3=O)c2)COC1")
1.31
>>> value_measured("CCOc1cc(N2Cc3c(cc([C@H](C)N4CC[C@H](F)C4)cc3C(F)(F)F)C2=O)cc(C2(Cc3nncn3C)COC2)c1")
1.51
>>> value_measured("Cn1cnnc1CC1(c2cccc(NC(=O)c3cc(C4CC4)nc(C(F)(F)F)n3)c2)COC1")
1.31
>>> value_measured("Cn1cnnc1CC1(c2cccc(NC(=O)c3cc(CN4CCC5(CC5)C4)cc(C4CC4)n3)c2)COC1")
1.31
>>> value_measured("Cc1conc1CC1(c2cccc(NC(=O)c3cc(CN4CC[C@H](O)C4)nc(C4CC4)n3)c2)COC1")
1.31

INPUT: Look up fold change (FC) for this compound: C[C@H](Cc1nncn1C)c1cccc(N2Cc3c(ccnc3C(F)(F)F)C2=O)c1
OUTPUT: 1.01

INPUT: Repeat for the following compound: C[C@H](Sc1nncn1C)c1cccc(NC(=O)c2cc(C(F)(F)F)cc(C3CC3)n2)c1
OUTPUT: 1.01

INPUT: Repeat for the following compound: C[C@H](Cc1nncn1C)c1ccnc(N2Cc3c(cccc3C(F)(F)F)C2=O)c1
OUTPUT: 1.01

----------
Experiment: Induction of anti-CD3/CD28 antibodies-stimulated human T cell activation at 4 uM assessed fold increase in CD25 expression measured by ELISA assay
Type: functional, T cell line
Measured fold change (FC), listed per entry.
In your answer, state the number alone without any accompanying words.

Field: example entries. Status: answers known.
>>> value_measured("Cn1cnnc1C(F)(F)[C@](C)(F)c1cccc(N2Cc3c(cc(-c4cncc(F)c4)cc3C(F)(F)F)C2=O)c1")
1.01
>>> value_measured("Cc1conc1CC(C)c1cccc(N2Cc3c(cccc3C(F)(F)F)C2=O)c1 (centres undefined)")
1.01
>>> value_measured("Cc1cc(C(=O)Nc2cccc([C@@](C)(F)C(F)(F)c3nncn3C)c2)nc(C2CC2)n1")
1.31
>>> value_measured("Cc1cc2c(c(C3CC3)n1)CN(c1cccc([C@H](C)Cc3nncn3C)c1)C2=O")
1.01
>>> value_measured("Cn1cnnc1CC1(c2cccc(N3Cc4c(cc(CN5CCC(F)(F)C5)cc4C(F)(F)F)C3=O)c2)COC1")
1.01

INPUT: Look up fold change (FC) for this molecule: C[C@H](Sc1nncn1C)c1cccc(NC(=O)c2cc(Cl)cc(C(F)(F)F)n2)c1
OUTPUT: 1.01

INPUT: Repeat for the following molecule: C[C@H](Sc1nncn1C)c1cccc(NC(=O)c2cc(C(F)(F)F)cc(C3CC3)n2)c1
OUTPUT: 1.31

INPUT: Repeat for the following molecule: Cc1cc(C(=O)Nc2cccc([C@H](C)Cc3nncn3C)c2)nc2ccnn12
OUTPUT: 1.31

----------
Experiment: Induction of anti-CD3/CD28 antibodies-stimulated human T cell activation at 0.3 uM assessed fold increase in CD25 expression measured by ELISA assay
Type: functional, T cell line
Value type: fold change (FC)
In your answer, state the number alone without any accompanying words.

>>> value_measured("Cn1cnnc1CC1(c2cccc(N3Cc4c(cc(CN5CCc6ccccc6C5)cc4C(F)(F)F)C3=O)c2)COC1")
1.01
>>> value_measured("C[C@H](Sc1nncn1C)c1cccc(NC(=O)c2cc(C3CC3)cc(C(F)(F)F)n2)c1")
1.01
>>> value_measured("C[C@H](Cc1nncn1C)c1cc(C2CCOCC2)nc(N2Cc3c(cccc3C(F)(F)F)C2=O)c1")
1.01
>>> value_measured("CC(c1cc2c(c(C3CC3)n1)CN(c1cccc(C3(Cc4nncn4C)COC3)c1)C2=O)N1CCC2(CC2)C1 (stereo unspecified)")
1.01

INPUT: Look up fold change (FC) for this molecule: Cc1c[nH]nc1-c1cc2c(c(C(F)(F)F)c1)CN(c1cccc([C@H](C)Cc3nncn3C)c1)C2=O
OUTPUT: 1.31

INPUT: Repeat for the following molecule: CC1C(C(F)(F)F)CCN1Cc1cc2c(c(C(F)(F)F)c1)CN(c1cccc(C3(Cc4nncn4C)COC3)c1)C2=O (stereo unspecified)
OUTPUT: 1.01

INPUT: Repeat for the following molecule: CCNc1cc([C@H](C)Cc2nncn2C)cc(N2Cc3c(cccc3C(F)(F)F)C2=O)n1
OUTPUT: 1.31

INPUT: Repeat for the following molecule: C[C@@H](c1cc2c(c(C(F)(F)F)c1)CN(c1cccc(C3([C@@H](F)c4nncn4C)COC3)c1)C2=O)N1CCC2(CC2)C1 (single isomer, unassigned)
OUTPUT: 1.31

INPUT: Repeat for the following molecule: CC[C@@H](c1cc2c(c(C(F)(F)F)c1)CN(c1cccc(C3(Cc4nncn4C)COC3)c1)C2=O)N1CC[C@H](F)C1
OUTPUT: 1.51

INPUT: Repeat for the following molecule: C[C@H](Cc1nncn1C)c1cc(OCCO)nc(N2Cc3c(cccc3C(F)(F)F)C2=O)c1
OUTPUT: 1.01

INPUT: Repeat for the following molecule: Cn1cnnc1CC1(c2cccc(N3Cc4c(cc(N5CC6(C5)CC(F)(F)C6)cc4C(F)(F)F)C3=O)c2)COC1
OUTPUT: 1.01

INPUT: Repeat for the following molecule: C[C@@H]1CCN(Cc2cc3c(c(C(F)(F)F)c2)CN(c2cccc(C4(Cc5nncn5C)COC4)c2)C3=O)C[C@H]1F (relative stereo)
OUTPUT: 1.31

INPUT: Repeat for the following molecule: C[C@H](Cc1nncn1C)c1cccc(NC(=O)c2cccc(S(C)(=O)=O)n2)c1
OUTPUT: 1.01

INPUT: Repeat for the following molecule: Cn1cnnc1C(F)(F)[C@](C)(F)c1cccc(N2Cc3c(cc(C(=O)N4CC(C(F)F)C4)cc3C(F)(F)F)C2=O)c1
OUTPUT: 1.01

INPUT: Repeat for the following molecule: CC(c1cc2c(c(C3CC3)n1)CN(c1cccc(C3(Cc4nncn4C)COC3)c1)C2=O)N1CCCC1 (stereo unspecified)
OUTPUT: 1.01

INPUT: Repeat for the following molecule: C[C@H](Cc1nncn1C)c1cccc(N2Cc3c(cc(C(=O)N4CC[C@H](O)C4)cc3C(F)(F)F)C2=O)c1
OUTPUT: 1.01
